# experimental-system: Nrf2-Keap1 complex (Homo sapiens, UniProt Q14145)
# Sequence (Q14145 whole entry, one chain of several): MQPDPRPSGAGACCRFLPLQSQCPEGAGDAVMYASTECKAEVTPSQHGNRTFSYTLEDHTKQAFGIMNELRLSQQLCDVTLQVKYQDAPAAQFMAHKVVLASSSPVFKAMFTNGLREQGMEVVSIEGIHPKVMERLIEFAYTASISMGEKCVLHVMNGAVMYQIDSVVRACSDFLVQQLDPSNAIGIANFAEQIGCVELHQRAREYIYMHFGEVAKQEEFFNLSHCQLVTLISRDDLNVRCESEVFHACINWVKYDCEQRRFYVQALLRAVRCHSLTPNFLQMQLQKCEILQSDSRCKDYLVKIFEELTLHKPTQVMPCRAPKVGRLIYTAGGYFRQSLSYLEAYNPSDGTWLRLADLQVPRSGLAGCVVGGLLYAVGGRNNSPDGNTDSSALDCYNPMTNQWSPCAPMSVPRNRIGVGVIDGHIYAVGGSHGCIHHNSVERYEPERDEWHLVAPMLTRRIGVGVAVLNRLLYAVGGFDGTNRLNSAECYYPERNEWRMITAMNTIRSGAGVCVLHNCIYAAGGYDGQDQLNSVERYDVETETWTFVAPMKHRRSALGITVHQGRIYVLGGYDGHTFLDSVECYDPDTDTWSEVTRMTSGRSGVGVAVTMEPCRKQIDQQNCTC
# experiment-notes: cell-based
# Type: cell-based
# protocol-conditions: Table 1A; 100 nL compound; screen run at 16 and 32 μM, 3 hr
recorded-metric: 100 nL (luminescence)
Lab note: record just the number, no unit beside it.

Problem: For the compound COc1ccc2cc1Oc1ccc(cc1)C[C@H]1c3c(cc4c(c3Oc3cc5c(cc3OC)CCN(C)[C@@H]5C2)OCO4)CCN1C [CEPHARANTHINE, reference compound] , what 100 nL (luminescence) is on record?
Solution: 2348

* * *

# experimental-system: Nrf2-Keap1 complex (Homo sapiens, UniProt Q14145)
# experiment-notes: cell-based
# Type: cell-based
# protocol-conditions: 3 h, read-out: Activation 200 nL
Answer each item with its documented activation at 32 µM.
Unit % implied. Number only.

Problem: For the compound Nc1ncnc2c1ncn2[C@@H]1O[C@H](CO)[C@@H](O)[C@H]1O [ADENOSINE, reference compound] , what activation at 32 µM is on record?
Solution: 20

Problem: For the compound Oc1cc(O)c2c(c1)O[C@H](c1cc(O)c(O)c(O)c1)[C@H](O)C2 [EPIGALLOCATECHIN] , what activation at 32 µM is on record?
Solution: -20

Problem: For the compound CC1(C)C(C(Cl)Cl)C2(Cl)C(Cl)C(Cl)C1(Cl)C2(Cl)Cl (stereo not shown) [TOXAPHENE] , what activation at 32 µM is on record?
Solution: 226

Problem: For the compound COc1cc([C@@H]2c3cc4c(cc3[C@H](O)[C@H]3COC(=O)[C@@H]23)OCO4)cc(OC)c1OC [PICROPODOPHYLLOTOXIN] , what activation at 32 µM is on record?
Solution: 57

* * *

# experimental-system: Nrf2-Keap1 complex (Homo sapiens, UniProt Q14145)
# experiment-notes: cell-based
# Type: cell-based
recorded-metric: Activation 100 nL (%)
Unit % implied. Number only.

Problem: For the molecule O=c1cc(-c2cc(O)c(O)c(O)c2)oc2cc(O)cc(O)c12 [HIERACIN] , what Activation 100 nL is on record?
Solution: 160

Problem: For the molecule "COc1ccc(C(=O)c2ccccc2)c(O)c1O" , what Activation 100 nL is on record?
Solution: 47

Problem: For the molecule CC(=O)O[C@@H]1C[C@H]2C(C)(C)[C@@H](O)CC[C@]2(C)[C@H]2CC[C@@]3(C)[C@H](c4ccoc4)OC(=O)[C@H]4O[C@]43[C@@]21C [beta-DIHYDROGEDUNOL] , what Activation 100 nL is on record?
Solution: 217

Problem: For the molecule COc1c(O)cc2oc3cc(O)c(CC=C(C)C)c(O)c3c(=O)c2c1CC=C(C)C [alpha-MANGOSTIN] , what Activation 100 nL is on record?
Solution: 28

Problem: For the molecule CC1(C)C=CC(=O)[C@@]2(C)C1CC(=O)[C@]1(C)C2CC[C@@]2(C)[C@H](c3ccoc3)OC(=O)C3OC321 (stereo partly shown) [DEACETOXY-7-OXISOGEDUNIN] , what Activation 100 nL is on record?
Solution: 170

Problem: For the molecule CC(C)=CCCC1(C)C=Cc2c(O)c3c(c(CC=C(C)C)c2O1)OC12C(CC4CC1C(C)(C)OC2(C/C=C(/C)C(=O)O)C4O)C3=O (stereo not shown) [TETRAHYDROGAMBOGICACID] , what Activation 100 nL is on record?
Solution: 383

Problem: For the molecule C=C1CC[C@H]2O[C@]2(C)CC[C@@H]2[C@@H]1CC2(C)C [CARYLOPHYLLENEOXIDE] , what Activation 100 nL is on record?
Solution: 38

Cited source for all entries: patent US9200046B2
